Test: NCI Yeast Anticancer Drug Screen. Data for the sgs1 mgt1 strain (AID 161);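 note: 0% = growth of cultures given vehicle only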
Details: S. cerevisiae sgs1 mgt1 strain, at 50.0 µM, stronger effect = higher value
The panel holds about 79,000 compounds, 15% with a hit somewhere; the sample as a whole holds those more often. Calls of active or inactive are those of the source. Cut-off read from the data, not from the text of the source: active = growth inhibition above about 70%; inactive = the rest.
parameter_measured: growth inhibition

Known results for compounds:
compound: c1ccn2cncc2c1
growth inhibition: 13.1% (inactive)
--
compound: Cc1cc(C)c(C(CC(=O)O)C(CC(=O)O)c2c(C)cc(C)cc2C)c(C)c1 (configuration not stated)
growth inhibition: -16.6% (inactive)
--
compound: CC1=NC(=Cc2ccccc2O)C(=O)N1n1c(-c2ccccc2)nc2ccccc2c1=O
growth inhibition: 51.5% (inactive)
--
compound: COC(=O)c1ccccc1N(C(=O)c1ccccc1)c1ccccc1C
growth inhibition: -18.9% (inactive)
--
compound: CCN(Cc1ccccc1)C(=O)Nc1c(Cl)cccc1Cl
growth inhibition: 1.35% (inactive)
--
compound: NC(=O)CC(NC(=O)OCc1ccccc1)C(N)=O (configuration not stated)
growth inhibition: -11.2% (inactive)
--
compound: CC(=O)Nc1ccc(/C=C/C(=O)O)cc1
growth inhibition: -21.7% (inactive)
--
compound: CCOC(=O)N1OC2C=CC1CC2 (configuration not stated)
growth inhibition: -12.1% (inactive)
--
compound: [O-]c1on[n+]2c1c(Nc1ccc(Cl)cc1)nc1ccccc12
growth inhibition: -22.3% (inactive)
--
compound: CC1(C)CS(=O)(=O)C(=O)N1CCC(=O)O
growth inhibition: 7.8% (inactive)

Entry O=S(=O)(c1ccc(Nc2nnc(-c3ccccc3)s2)cc1)N1CCCCC1 : reported growth inhibition = ?
42.3% (inactive)

Entry CCC(COC(=O)C(c1ccccc1)c1ccccc1)NC1CCCCC1 (configuration not stated) : reported growth inhibition = ?
44.8% (inactive)
